Measured Absorbance, formation of formazan dyes (Means), listed per entry for reference.
system: diaphorase; experiment: Formation of formazan dyes: only diaphorase and malate (TABLE 14); format: biochemical, Clostridium kluyveri; conditions: 3 h, mean of three experiments
PARAMETER: Absorbance, formation of formazan dyes (Means)

COMPOUND: Cc1nc(-[n+]2nc(-c3cccc(OCC(=O)O)c3)nn2-c2ccc(S(=O)(=O)[O-])cc2)sc1C
TEST VALUE: 0.32

COMPOUND: COc1cc(-c2ccc(-[n+]3nc(-c4ccc(C(=O)N(CCS(=O)(=O)[O-])CCS(=O)(=O)[O-])cc4)nn3-c3nc4ccccc4s3)c(OC)c2)ccc1-[n+]1nc(-c2ccc(C(=O)N(CCS(=O)(=O)[O-])CCS(=O)(=O)[O-])cc2)nn1-c1nc2ccccc2s1.[Na+].[Na+]
TEST VALUE: 0.18

COMPOUND: COc1cc([N+](=O)[O-])ccc1-[n+]1nc(-c2ccc(S(=O)(=O)[O-])cc2S(=O)(=O)[O-])nn1-c1ccc([N+](=O)[O-])cc1.[Na+]
TEST VALUE: 0.19

COMPOUND: COc1cc([N+](=O)[O-])c(S(=O)(=O)[O-])cc1-n1nc(C(=O)Nc2ccccc2)n[n+]1-c1cc(S(=O)(=O)O)c([N+](=O)[O-])cc1OC
TEST VALUE: 0.53
